Test system: IGROV-1
Test: NCI tumour cell line growth inhibition, 48 h
Activity calls are given as the source filed them. Rule as the data show it: active = GI50 up to about 1.1 µM and inactive = higher.
Provide the reported GI50 of each item.

[
  {
    "molecule": "COc1cc(/C=C/C(=O)CC(=O)/C=C/c2cc(C)c(O)c(OC)c2)cc(C)c1O",
    "GI50": "> 100 µM (inactive)"
  },
  {
    "molecule": "O=C1O[B-](c2ccccc2)(c2ccccc2)[NH2+]C1CS (stereo not drawn)",
    "GI50": "78 µM (inactive)"
  }
]

Attention now turns to another entry.
Look at this molecule and give its reported GI50. COc1cc2c3c(c1OC)C(=O)C=C3N(S(=O)(=O)c1ccc(C)cc1)CC2
> 100 µM (inactive)

* * *

System: T47D
Assay: NCI tumour cell line growth inhibition, 48 h
The source made the active and inactive calls. Rule as the data show it: active = GI50 up to about 1.1 µM and inactive = higher.
property.measured: GI50

Before answering, review these 4 worked examples.
[
  {
    "compound": "CC(=O)O[C@H]1C[C@H]2[C@@H]([C@H](OC(C)=O)C[C@@H]3CC4(CC[C@@]32C)OOC2(CCCCC2)OO4)[C@@H]2CC[C@H]([C@H](C)CCC(N)=O)[C@@]12C",
    "GI50": "1.63 µM (inactive)"
  },
  {
    "compound": "C[N+](C)(C)CC(=O)N/N=C(\\C(=O)NC1=C(Cl)C(=O)c2ccccc2C1=O)C(C#N)c1nc(-c2ccc([N+](=O)[O-])cc2)cs1 (stereo not given)",
    "GI50": "5.85 µM (inactive)"
  },
  {
    "compound": "CC(C)C(/C=C/c1ccc(Cl)cc1)=N\\NC(=O)N/N=C(/C=C/c1ccc(Cl)cc1)C(C)C",
    "GI50": "40.8 µM (inactive)"
  },
  {
    "compound": "Cc1cc(/N=C/c2ccc(Cl)cc2)n(-c2ccccc2)n1",
    "GI50": "16.7 µM (inactive)"
  }
]

Attention now turns to another entry.
Look at this compound and give its reported GI50. CC(=O)OC1[C@@H](OC(C)=O)CN(OCc2ccccc2)C[C@H]1OC(C)=O (stereo not given in full)
> 100 µM (inactive)

* * *

Test system: UO-31
Assay: NCI tumour cell line growth inhibition, 48 h
Activity calls are given as the source filed them. No stated cut-off is given here; in the data, active = GI50 up to about 1.1 µM and inactive = higher.
property.measured: GI50

Before answering, review these 2 worked examples.
[
  {
    "compound": "Nc1ccc(C2=Nc3ccccc3SC(c3ccccc3O)C2)cc1 (stereo not drawn)",
    "target.system": "UO-31",
    "GI50": "29.8 µM (inactive)"
  },
  {
    "compound": "O[C@]12CCCC[C@H]1CCC2",
    "target.system": "UO-31",
    "GI50": "> 100 µM (inactive)"
  }
]

Attention now turns to another entry.
Look at this compound and give its reported GI50. NC(CCSC(F)F)C(=O)O (stereo not drawn)
> 100 µM (inactive)

* * *

Provide the reported GI50 of each item.
System: SK-MEL-5
Assay: NCI tumour cell line growth inhibition, 48 h
Where a name gives a salt, the structure may show the parent alone. The source made the active and inactive calls. No stated cut-off is given here; in the data, active = GI50 up to about 1.1 µM and inactive = higher.

[
  {
    "compound": "Cc1cc(S(=O)(=O)O)c(NC(=O)c2oc3cc(O)ccc3c(=O)c2C)cc1Cl",
    "GI50": "> 100 µM (inactive)"
  },
  {
    "compound": "COc1ccc(OC)c(NC(=O)C2=C(C)NC(C)=C(C(=O)Nc3cc(OC)ccc3OC)C2c2ccco2)c1",
    "GI50": "51.3 µM (inactive)"
  }
]

Dear colleague, could you please provide GI50 for the compounds listed below?
1. COc1c(CC=C(C)C)c(O)c(C(CC(C)C)c2c(O)c3c(c(C(C)=O)c2O)OC(C(C)(C)O)C3)c(O)c1C(C)=O (stereo not given)
2. O=C1OC(c2ccccc2)=N/C1=C\c1ccc(Br)cc1

2.22 µM (inactive)
> 100 µM (inactive)

Dear colleague, could you please provide GI50 for the compounds listed below?
1. Cc1ccc2c(c1)[nH]c(=S)n2C=C1C(=O)CC(C)(C)CC1=O
2. C=C(CN(C)C)C(=O)c1ccc(C)cc1C
3. CCOc1ccc2nc(NC(NC(=O)c3cccnc3)(C(F)(F)F)C(F)(F)F)sc2c1
4. CN1[C@@H]2C[C@@H](OC(=O)[C@H](CO)c3ccccc3)C[C@H]1[C@@H]1O[C@@H]12 [SCOPOLAMINE HYDROBROMIDE]
5. O=C(O)c1ccc(C2SCc3nc4ccccc4n32)cc1 (stereo not given)
6. Cc1cn([C@@H]2C[C@@H]2CO)c(=O)[nH]c1=O
7. CCSCCCCC(c1ccc(O)cc1)C(C)(CC)c1ccc(O)cc1 (stereo not given)

> 100 µM (inactive)
14.1 µM (inactive)
20.5 µM (inactive)
> 100 µM (inactive)
> 100 µM (inactive)
> 100 µM (inactive)
18.2 µM (inactive)

Dear colleague, could you please provide GI50 for the compounds listed below?
1. O=C(NC1(c2cc3ccccc3s2)CCCCC1)C1CCC1
2. COC(=O)CNC(=O)CNC(=O)CSc1nnc(COc2ccc(Cl)cc2)n1-c1ccccc1
3. Cn1c(=O)c2[nH]c(N/N=C3/SCC(=O)N3Cc3ccccc3)nc2n(C)c1=O
4. Cc1cccc2c1CC(Cc1ccccc1C(=O)O)C2=O (stereo not given)

1: > 100 µM (inactive); 2: 22.4 µM (inactive); 3: 34.9 µM (inactive); 4: > 100 µM (inactive)
